- target desc: HSET full length protein (Homo sapiens (Human), UniProt Q9BW19)
- Sequence (Q9BW19 whole entry): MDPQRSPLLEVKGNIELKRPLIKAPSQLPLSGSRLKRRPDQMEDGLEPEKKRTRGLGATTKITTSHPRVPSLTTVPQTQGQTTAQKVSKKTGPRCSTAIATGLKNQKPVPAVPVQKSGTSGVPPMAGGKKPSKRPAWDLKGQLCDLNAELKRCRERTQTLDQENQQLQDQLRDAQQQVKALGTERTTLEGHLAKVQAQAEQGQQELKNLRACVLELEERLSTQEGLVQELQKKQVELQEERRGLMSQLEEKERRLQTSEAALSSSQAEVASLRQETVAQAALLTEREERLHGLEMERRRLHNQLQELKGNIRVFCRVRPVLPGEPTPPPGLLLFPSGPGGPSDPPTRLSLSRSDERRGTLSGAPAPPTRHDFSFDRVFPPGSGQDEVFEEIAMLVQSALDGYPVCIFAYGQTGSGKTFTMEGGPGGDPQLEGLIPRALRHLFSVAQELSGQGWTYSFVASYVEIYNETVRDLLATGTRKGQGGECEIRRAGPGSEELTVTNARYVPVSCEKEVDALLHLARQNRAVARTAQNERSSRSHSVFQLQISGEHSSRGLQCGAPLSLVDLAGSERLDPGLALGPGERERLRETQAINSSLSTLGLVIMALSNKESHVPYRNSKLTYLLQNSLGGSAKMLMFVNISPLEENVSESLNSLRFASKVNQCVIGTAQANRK
- assay details: HSET ADP-Glo Assay S - 3 μM ATP
- run conditions: 5 nM HSET, 70 μg/mL microtubule, 80 min at rt, read-out: COMBINED HSET ADP GLO IC50
pIC50: −log10 of the molar value.
measured metric: pIC50

• Cc1nc(N(C)C(=O)C[C@@H](CC#N)NC(=O)c2cccc(-c3cnn(C)c3)c2)sc1C(=O)OC(C)C = 5.03
• CCOC(=O)c1sc(NC(=O)CCNC(=O)c2cccc(N3CCCC3)c2)nc1C = 5.40
• CNCCC[C@@H](CC(=O)Nc1nc(C)c(C(=O)OC(CF)CF)s1)Nc1nccc2ccc(-c3noc(C)n3)cc12 = 7.96
• CCCOC(=O)c1sc(NC(=O)CCNC(=O)c2cc(Cl)cc(-c3noc(C)n3)c2)nc1C = 7.89
• COCCOCCCCOC(=O)c1sc(NC(=O)CCNC(=O)c2cccc(-c3noc(C)n3)c2)nc1C = 7.26
• CCOC(=O)n1cc(NC(=O)CCNc2nccc3ccc(-c4noc(C)n4)cc23)nc1C = 6.27
• CNCCC[C@@H](CC(=O)Nc1nc(C)c(C(=O)O)s1)Nc1nccc2ccc(-c3noc(C)n3)cc12 = 6.58
• CCOC(=O)c1sc(NC(=O)CCNC(=O)c2cccc(-c3nnc(C)o3)c2)nc1C = 6.59

1 = CCOC(=O)c1sc(NC(=O)CCNC(=O)c2cccc(-c3cnco3)c2)nc1C
2 = Cc1nc(-c2cccc(C(=O)N[C@H]3C[C@@H](C(=O)Nc4nc(C)c(C(=O)OC(C)(C)C)s4)C3)c2)no1
3 = CCOC(=O)c1sc(NC(=O)CCNC(=O)c2ccc3c(c2)CCCC3)nc1C
Sort low-to-high on pIC50, please. Answer format: the labels, ordered as requested.
3, 1, 2

A = Cc1nc(-c2cccc(C(=O)NCCC(=O)Nc3nc(C)c(C(=O)OC(C)(C)C)s3)n2)no1
B = CCOC(=O)c1sc(NC(=O)CCNC(=O)c2cc(Br)cc(C(=O)OC)c2)nc1C
// task: argmin of pIC50 over [ A , B ] Reply briefly: the label of your chosen item.
A
(A: 6.81, B: 7.85)

----------
- target desc: HSET full length protein (Homo sapiens (Human), UniProt Q9BW19)
- assay details: HSET ADP-Glo Assay S - 3 μM ATP
- run conditions: 5 nM HSET, 70 μg/mL microtubule, 80 min at rt, read-out: COMBINED HSET ADP GLO IC50
pIC50: −log10 of the molar value.
measured metric: pIC50

• CCCOC(=O)c1sc(C(=O)N2CC[C@@H](Nc3nccc4ccc(-c5noc(C)n5)cc34)C2)nc1C = 6.22
• CCCOC(=O)c1sc(NC(=O)CCNC(=O)c2cc(-c3noc(C)n3)cc(C(F)(F)F)c2)nc1C = 7.96
• CCCOC(=O)c1sc(NC(=O)C[C@H](CCCN)NC(=O)c2cccc(-c3noc(C)n3)c2)nc1C = 7.89
• Cc1nc(N(C)C(=O)C[C@H](CC#N)NC(=O)c2cccc(-c3cnn(C)c3)c2)sc1C(=O)OC(C)C = 5.36
• Cc1nc(-c2cccc(C(=O)NCCC(=O)Nc3nc(C)c(/C=C/C4CCCC4)s3)c2)no1 = 6.16

I = COC(=O)c1sc(NC(=O)C[C@@H](CC#N)NC(=O)c2cccc(-c3noc(C)n3)c2)nc1C
II = Cc1nc(-c2ccc3ccnc(NCCC(=O)Nc4cc(C(=O)OC5CCCC5)n(C)n4)c3c2)no1
// task: argmin of pIC50 over [ I , II ] Reply briefly: the label of your chosen item.
I

----------
- target desc: HSET full length protein (Homo sapiens (Human))
- assay details: HSET ADP-Glo Assay S - 3 μM ATP
- run conditions: 5 nM HSET, 70 μg/mL microtubule, 80 min at rt, read-out: COMBINED HSET ADP GLO IC50
measured metric: IC50 (nM)

- Cc1nc(-c2ccc3ccnc(NCCC(=O)Nc4cc(C5CC5)on4)c3c2)no1: 1500

1 = Cc1nc(NC(=O)C[C@@H](CC#N)NC(=O)c2cccc(-c3cnn(C)c3)c2)sc1C(=O)OC(C)C
2 = CCOC(=O)c1sc(NC(=O)CCNC(=O)c2cccc(-c3nnn(C)n3)c2)nc1C
Which has the higher IC50, 1 or 2 ? Reply briefly: the label of your chosen item.
1

1 = Cc1nc(-c2ccc3ccnc(N[C@H]4C[C@@H](C(=O)Nc5cc(C)c(CC(C)C)s5)C4)c3c2)no1
2 = CNCCC[C@@H](CC(=O)Nc1nc(C)c(C(=O)OC(C)(C)C)s1)NC(=O)c1cccc(-c2noc(C)n2)c1
3 = CCCOC(=O)n1cnc(NC(=O)CCNC(=O)c2cccc(-c3noc(C)n3)c2)c1
4 = CCCOC(=O)c1sc(C(=O)N2C[C@@H](F)[C@H](Nc3nccc4ccc(-c5noc(C)n5)cc34)C2)nc1C
Sort low-to-high on IC50, please. Answer format: the labels, ordered as requested.
2, 4, 1, 3

----------
- target desc: HSET full length protein (Homo sapiens (Human))
- assay details: HSET ADP-Glo Assay S - 3 μM ATP
- run conditions: 5 nM HSET, 70 μg/mL microtubule, 80 min at rt, read-out: COMBINED HSET ADP GLO IC50
- Method: Example 281: Testing compounds of the present invention for inhibitory activities against HSET—HSET ADP-Glo Assay S—3 μM ATP Reagents: (+4° C. Storage) • Paclitaxel Prod.No.TXD.01 2 mM in DMSO (from Universal Biologicals Cambridge). • Tubulin Protein (Pre-formed Microtubules): Bovine Brain Prod.No.MT001-XL Lot.025 10 mg/mL (from Universal Biologicals Cambridge). […]
measured metric: IC50 (µM)

* CCCOC(=O)c1sc(NC(=O)CCNC(=O)c2cc(C(=O)OC)cc([N+](=O)[O-])c2)nc1C [Example 33] | 0.161
* CCOC(=O)c1sc(NC(=O)CCNC(=O)c2cccc(N3CCOCC3)c2)nc1C [Example 7] | 15.6
* CCOC(=O)c1sc(N(C)C(=O)CCNC(=O)c2cccc(-c3noc(C)n3)c2)nc1C [Example 219] | 0.089
* Cc1nc(-c2cccc(C(=O)N[C@@H](CC#N)CC(=O)N(C)c3nc(C)c(C(=O)OC(C)C)s3)c2)no1 [Example 199] | 0.01
* CNCCC[C@@H](CC(=O)Nc1nc(C)c(C(C)(C)C)s1)NC(=O)c1cccc(-n2nnc(C)n2)c1 [Example 60] | 0.054

I = Cc1nc(NC(=O)C[C@@H](CC#N)NC(=O)c2cccc(-c3cnn(C)c3)n2)sc1C(=O)OC(C)C [Example 214]
II = CCCN(C(=O)CCNC(=O)c1cccc(-c2noc(C)n2)c1)c1nc(C)c(C(=O)OCC)s1 [Example 134]
III = CCOC(=O)c1sc(NC(=O)CCNC(=O)c2cccc(-c3ncon3)c2)nc1C [Example 23]
Sort low-to-high on IC50, please. Answer format: the labels, ordered as requested.
III, II, I

----------
- target desc: HSET full length protein (Homo sapiens (Human))
- assay details: HSET ADP-Glo Assay S - 3 μM ATP
- run conditions: 5 nM HSET, 70 μg/mL microtubule, 80 min at rt, read-out: COMBINED HSET ADP GLO IC50
measured metric: IC50 (nM)

In the examples that follow, each entry is paired with its recorded IC50.
* CNCCC[C@@H](CC(=O)Nc1nc(C)c(C(C)(C)C)s1)NC(=O)c1cc(Cl)cc(-c2noc(C)n2)c1 | 373
* Cc1nnc(-c2cccc(C(=O)N[C@H]3C[C@@H](C(=O)Nc4nc(C)c(C(=O)OC(C)(C)C)s4)C3)c2)o1 | 132
* Cc1nc(-c2ccc3ncnc(N[C@H]4C[C@@H](C(=O)Nc5nc(C)c(C(=O)OC(C)(C)C)s5)C4)c3c2)no1 | 68
* Cc1nc(-c2ccc3ccnc(NCCC(=O)Nc4cc(C(F)(F)F)n(C)n4)c3c2)no1 | 1260
* CCc1cc(NC(=O)CCNc2nccc3ccc(-c4noc(C)n4)cc23)nn1C | 8310

1 = Cc1nc(-c2ccc3ccnc(NC[C@H](O)C(=O)Nc4nc(C)c(C(=O)OC(C)(C)C)s4)c3c2)no1
2 = Cc1nc(-c2cccc(C(=O)NC3CN(C(=O)Nc4nc(C)c(C(=O)OC(C)(C)C)s4)C3)c2)no1
// task: argmin of IC50 over [ 1 , 2 ] Reply briefly: the label of your chosen item.
1
(1: 2 nM, 2: 86 nM)

----------
- target desc: HSET full length protein (Homo sapiens (Human))
- assay details: HSET ADP-Glo Assay S - 3 μM ATP
- run conditions: 5 nM HSET, 70 μg/mL microtubule, 80 min at rt, read-out: COMBINED HSET ADP GLO IC50
- Experimental: Example 281: Testing compounds of the present invention for inhibitory activities against HSET—HSET ADP-Glo Assay S—3 μM ATP Reagents: (+4° C. Storage) • Paclitaxel Prod.No.TXD.01 2 mM in DMSO (from Universal Biologicals Cambridge). • Tubulin Protein (Pre-formed Microtubules): Bovine Brain Prod.No.MT001-XL Lot.025 10 mg/mL (from Universal Biologicals Cambridge). […]
pIC50: −log10 of the molar value. Counter-ions that a name gives are not always drawn.
measured metric: pIC50

- CCCOC(=O)c1cc(NC(=O)CCNc2nccc3ccc(-c4noc(C)n4)cc23)nn1C [Example 131, formate]: 7.80
- CCCOC(=O)c1sc(C(=O)N(C)CCNc2nccc3ccc(-c4noc(C)n4)cc23)nc1C [Example 74]: 6.57
- COC/C=C/c1sc(NC(=O)CCNC(=O)c2cccc(-c3noc(C)n3)c2)nc1C [Example 94]: 4.87
- Cc1nc(NC(=O)[C@H]2C[C@@H](NC(=O)c3cccc(-c4nnn(C)n4)c3)C2)sc1C(=O)OC(C)(C)C [Example 107]: 7.39
- Cc1nc(-c2ccc3ncnc(N[C@H]4C[C@@H](C(=O)N(C)c5nc(C)c(C(=O)OC(C)(C)C)s5)C4)c3c2)no1 [Example 49]: 7.23

A = CCOC(=O)c1sc(NC(=O)CC(CC)NC(=O)c2cccc(-c3noc(C)n3)c2)nc1C (stereo not drawn) [Example 215]
B = Cc1nc(-c2cccc(C(=O)N[C@@H](CC#N)CC(=O)Nc3nc(C)c(C(=O)OC(C)C)s3)c2)no1 [Example 195]
C = CCOC(=O)c1sc(NC(=O)C[C@@H](C)NC(=O)c2cccc(-c3noc(C)n3)c2)nc1C [Example 142]
Sort low-to-high on pIC50, please. Answer format: the labels, ordered as requested.
C, A, B

a = CNCCC[C@@H](CC(=O)Nc1nc(C)c(C(=O)OC2CCC(F)(F)C2)s1)Nc1nccc2ccc(-c3noc(C)n3)cc12 (stereo partly drawn) [Example 170]
b = CCCOC(=O)c1sc(NC(=O)[C@@H](N)CNc2nccc3ccc(-c4noc(C)n4)cc23)nc1C [Example 174]
c = Cc1nc(-c2ccc3ccnc(N[C@H]4C[C@@](C)(C(=O)Nc5nc(C)c(C(=O)OC(C)(C)C)s5)C4)c3c2)no1 [Example 224]
Sort low-to-high on pIC50, please. Answer format: the labels, ordered as requested.
c, b, a
(c: 6.57, b: 8.10, a: 8.40)

1 = CCOC(=O)c1sc(NC(=O)CCNC(=O)c2cccc(-c3nc(C)no3)c2)nc1C [Example 34]
2 = CCCOC(=O)n1cc(NC(=O)CCNc2nccc3ccc(-c4cnn(C)c4)cc23)nc1C [Example 262]
3 = CNCCC[C@@H](CC(=O)Nc1nc(C)c(C(=O)OC(C)C)s1)Nc1nccc2ccc(-c3noc(C)n3)cc12 [Example 167]
Sort by pIC50, descending. Answer format: the labels, ordered as requested.
3, 1, 2
(3: 8.00, 1: 7.00, 2: 6.00)

Sourced from patent US20250084074A1
